- Tested on: binding site of a radiolabelled ligand (assay of U.S. Patent No. 5,859,188)
- measurement.notes: binding assay as described in U.S. Patent No. 5,859,188: percent displacement of a radiolabelled ligand
- settings: 25 uM; percent displacement of radiolabelled ligand
- Description: Selected compounds were evaluated for their anti-parasitic activity in a binding assay as described in U.S. Patent No. 5,859,188 (Geary, et.al., 1999). Results of the evaluations are given in the following Table wherein % inhibition means percent displacement of a radiolabelled ligand as described.
What Testing Result % inhibition at indicated concentration was measured for each of the following?

Tell me the measured Testing Result % inhibition at indicated concentration of CCOC(=O)c1c(NC(=O)CN2CCCCCC2)sc2c1CCC2 , please.
77-70% at 25 uM

Tell me the measured Testing Result % inhibition at indicated concentration of CCOC(=O)c1c(NC(=O)CN2CCCC(O)C2)sc2c1CCCC2 (stereo not drawn) , please.
68-73% at 25 uM

Tell me the measured Testing Result % inhibition at indicated concentration of CCOC(=O)c1c(NC(=O)CN2CCCCC2)sc2c1CCS2 , please.
61-72% at 25 uM

Just for reference, patent US20040014740A1 is where these values come from.
